experimental.system: human ODC (Homo sapiens, UniProt P11926);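 note: His-tagged human ODC expressed in Escherichia coli, activity followed as decarboxylation coupled via PEP carboxylation and malate formation to NADH analog oxidation, absorbance drop at 405 nm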
Sequence (P11926 1-461): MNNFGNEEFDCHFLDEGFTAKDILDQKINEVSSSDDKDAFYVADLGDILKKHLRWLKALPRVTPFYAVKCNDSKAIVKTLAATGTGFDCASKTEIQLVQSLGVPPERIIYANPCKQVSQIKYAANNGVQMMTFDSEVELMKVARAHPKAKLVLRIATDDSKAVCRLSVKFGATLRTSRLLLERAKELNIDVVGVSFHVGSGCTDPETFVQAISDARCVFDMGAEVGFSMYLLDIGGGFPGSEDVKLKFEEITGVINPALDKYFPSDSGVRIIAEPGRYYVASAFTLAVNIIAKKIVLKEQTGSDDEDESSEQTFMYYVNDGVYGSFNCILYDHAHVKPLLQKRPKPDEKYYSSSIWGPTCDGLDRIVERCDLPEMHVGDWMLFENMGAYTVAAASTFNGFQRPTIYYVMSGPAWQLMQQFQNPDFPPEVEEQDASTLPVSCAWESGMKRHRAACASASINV
Doc: threshold 80 µM (exclusive). Items with IC50 beneath it return y; others return n.

A selection of reference data follows.
{"molecule": "O=c1cc(-c2ccccc2)oc2cc(O)c(O)c(O)c12 [Baicalein, 5,6,7-trihydroxyflavone]", "experimental.system": "human ODC (Homo sapiens, UniProt P11926)", "category": "y"}
{"molecule": "O=c1c(O)c(-c2cc(O)c(O)c(O)c2)oc2cc(O)cc(O)c12", "experimental.system": "human ODC (Homo sapiens, UniProt P11926)", "category": "y"}
{"molecule": "O=c1c(O)c(-c2ccc(O)c(O)c2)oc2cc(O)ccc12", "experimental.system": "human ODC (Homo sapiens, UniProt P11926)", "category": "n"}
{"molecule": "C[C@@H]1O[C@@H](OC[C@H]2O[C@@H](Oc3c(-c4ccc(O)c(O)c4)oc4cc(O)cc(O)c4c3=O)[C@H](O)[C@@H](O)[C@@H]2O)[C@H](O)[C@H](O)[C@H]1O", "experimental.system": "human ODC (Homo sapiens, UniProt P11926)", "category": "n"}
{"molecule": "O=c1cc(-c2ccccc2)oc2c(O)c(O)ccc12 [7,8-Dihydroxyflavone]", "experimental.system": "human ODC (Homo sapiens, UniProt P11926)", "category": "y"}

Let us examine a further case.
-- ask Strictly below 80 µM in IC50? O=c1cc(-c2ccccc2)oc2cc(O)c(O)cc12 [6,7-Dihydroxyflavone]
-- reply n
